meta.source: patent US20240083844A1

system: P-glycoprotein (MDR1); test: MDCK-MDR1 permeability assay; format: in vitro ADME, canine; conditions: dog; MDCK-MDR1, basolateral to apical, 1-30 μM, 120 minutes
recorded metric: Papp B→A at 120 min (×10⁻⁶ cm/s)

INSERT INTO measurements (substance_smiles, result_value) VALUES
  ('C#Cc1ccc(Nc2cncc(F)c2C(=O)NC2CNC2)c(F)c1', 59.5),
  ('O=C(NC1CNC1)c1c(F)cncc1Nc1ccc(I)cc1F', 36),
  ('CCN1CC(NC(=O)c2c(F)cncc2Nc2ccc(I)cc2F)C1', 18);

[P] CN1CC(NC(=O)c2c(F)cncc2Nc2ccc(I)cc2F)C1
[Q] O=C(NC1CNC1)c1c(Cl)cncc1Nc1ccc(I)cc1F
Q: # min-compare on Papp B→A at 120 min between P and Q Your answer should be the label attached to the chosen record.
Result: P

---

test: Caco-2 permeability assay; assay type: in vitro ADME; settings: human; Caco-2, apical to basolateral, 1-30 uM, 120 minutes
recorded metric: Papp A→B at 120 min (×10⁻⁶ cm/s)

[I] C#Cc1ccc(Nc2cncc(F)c2C(=O)NC2CNC2)c(F)c1
[II] CCN1CC(NC(=O)c2c(F)cncc2Nc2ccc(I)cc2F)C1
Q: Decide: I or II , by lowest recorded Papp A→B at 120 min. Refer to your chosen item by its label in the answer.
Result: I

---

assay: Mouse pharmacokinetics study; format: in vivo; conditions: mouse, plasma; CD-1 mice, IV 5 mg/kg; read-out: Clp
recorded metric: clearance (mL/min/kg)

INSERT INTO measurements (compound, result_value) VALUES
  ('C#Cc1ccc(Nc2cncc(F)c2C(=O)NC2CNC2)c(F)c1 [Compound 11]', 86),
  ('CCN1CC(NC(=O)c2c(F)cncc2Nc2ccc(I)cc2F)C1 [Compound 6]', 77.8);

---

assay: Caco-2 permeability assay; format: in vitro ADME; settings: human, Caco-2
recorded metric: efflux ratio at 120 min

[I] C#Cc1ccc(Nc2cncc(F)c2C(=O)NC2CNC2)c(F)c1 [Compound 11]
[II] CCN1CC(NC(=O)c2c(F)cncc2Nc2ccc(I)cc2F)C1 [Compound 6]
Q: Between the two listed entries I and II , which has its efflux ratio at 120 min at the higher number? Write the label of whichever entry you select.
Result: I

---

tested on: P-glycoprotein (MDR1); experiment: MDCK-MDR1 permeability assay; format: in vitro ADME, canine; conditions: dog; MDCK-MDR1, apical to basolateral, 1-30 μM, 120 minutes
recorded metric: Papp A→B at 120 min (×10⁻⁶ cm/s)

As a guide, the following entries are already answered.
INSERT INTO results (substance_smiles, recorded_metric, result_value) VALUES
  ('O=C(NC1CNC1)c1c(F)cncc1Nc1ccc(I)cc1F', 'Papp A→B at 120 min', 10.5),
  ('CCN1CC(NC(=O)c2c(F)cncc2Nc2ccc(I)cc2F)C1', 'Papp A→B at 120 min', 34.1),
  ('CN1CC(NC(=O)c2c(F)cncc2Nc2ccc(I)cc2F)C1', 'Papp A→B at 120 min', 32.5);

[a] C#Cc1ccc(Nc2cncc(F)c2C(=O)NC2CNC2)c(F)c1
[b] O=C(NC1CNC1)c1c(Cl)cncc1Nc1ccc(I)cc1F
Q: Consider entries a and b . Which has the numerically lower Papp A→B at 120 min? State the label of the item chosen.
Result: b
(b: 4.3 ×10⁻⁶ cm/s, a: 14.6 ×10⁻⁶ cm/s)
